# Tested on: HCC-44
# testProtocol: relative viability (nuclei count vs DMSO), 5 days (fraction); higher = more cells survive
# measurementSetup: first compound 0.04 µM
quantityName: relative viability

The cases that follow already have their relative viability on record.
C[C@@H]1CN(CC(=O)Nc2ccc3c(c2)Cc2cccc(-c4cc(=O)cc(N5CCOCC5)o4)c2S3)C[C@H](C)O1 + N=C(N)NC(=N)NCCc1ccccc1 [Phenformin] (partner 250 µM) :: 0.176
COc1cc(N2CCC(C(N)=O)CC2)ccc1Nc1nc(N)c(Cl)c(Nc2ccccc2S(=O)(=O)C(C)C)n1 [HG-5-88-01] + Nc1ncn([C@H]2C[C@H](O)[C@@H](CO)O2)c(=O)n1 [Decitabine] (partner 2 µM) :: 0.936
Clc1ccc(Nc2nnc(Cc3ccncc3)c3ccccc23)cc1 [Vatalanib] + CS(=O)(=O)N1CCN(Cc2cc3nc(-c4cccc5[nH]ncc45)nc(N4CCOCC4)c3s2)CC1 [Pictilisib] (partner 1 µM) :: 0.704

relative viability reading for COc1cc(N2CCC(C(N)=O)CC2)ccc1Nc1nc(N)c(Cl)c(Nc2ccccc2S(=O)(=O)C(C)C)n1 [HG-5-88-01] + CC(C)C[C@H](NC(=O)[C@H](Cc1ccccc1)NC(=O)c1cnccn1)B(O)O [Bortezomib] (partner 0.002 µM) : 0.901

====

Item-by-item account of relative viability
# Tested on: LCLC-103H
# testProtocol: relative viability (nuclei count vs DMSO), 5 days (fraction); higher = more cells survive
# measurementSetup: first compound 0.3162 µM
Number, no unit, nothing else.

CC(C)Oc1cc(Nc2nc(N[C@@H](C)c3ccc(F)cn3)ncc2Cl)n[nH]1 [AZ23] + Cc1cc(Nc2cc(N3CCN(C)CC3)nc(Sc3ccc(NC(=O)C4CC4)cc3)n2)n[nH]1 [Tozasertib] (partner 0.1 µM) :: 0.559
CC(C)Oc1cc(Nc2nc(N[C@@H](C)c3ccc(F)cn3)ncc2Cl)n[nH]1 [AZ23] + CCNC(=O)c1noc(-c2cc(C(C)C)c(O)cc2O)c1-c1ccc(CN2CCOCC2)cc1 [Luminespib] (partner 0.01 µM) :: 1.03
CC(C)Oc1cc(Nc2nc(N[C@@H](C)c3ccc(F)cn3)ncc2Cl)n[nH]1 [AZ23] + NC(=O)Nc1cc(-c2cccc(F)c2)sc1C(=O)N[C@H]1CCCNC1 [AZD7762] (partner 0.2 µM) :: 0.881
CC(C)Oc1cc(Nc2nc(N[C@@H](C)c3ccc(F)cn3)ncc2Cl)n[nH]1 [AZ23] + C[C@@H](Oc1cc(-c2cnn(C3CCNCC3)c2)cnc1N)c1c(Cl)ccc(F)c1Cl [Crizotinib] (partner 1 µM) :: 1.13
CC(C)Oc1cc(Nc2nc(N[C@@H](C)c3ccc(F)cn3)ncc2Cl)n[nH]1 [AZ23] + CC(C)C[C@H](NC(=O)[C@H](Cc1ccccc1)NC(=O)c1cnccn1)B(O)O [Bortezomib] (partner 0.002 µM) :: 1.14

Proceed to the following item.
relative viability reading for CC(C)Oc1cc(Nc2nc(N[C@@H](C)c3ccc(F)cn3)ncc2Cl)n[nH]1 [AZ23] + N=C(N)NC(=N)NCCc1ccccc1 [Phenformin] (partner 250 µM) : 0.333

====

# Tested on: NCI-H1666
# testProtocol: relative viability (nuclei count vs DMSO), 5 days (fraction); higher = more cells survive
# measurementSetup: first compound 1.265 µM
Item-by-item account of relative viability
Number, no unit, nothing else.

COc1cc(N2CCC(C(N)=O)CC2)ccc1Nc1nc(N)c(Cl)c(Nc2ccccc2S(=O)(=O)C(C)C)n1 [HG-5-88-01] + O=C(CCCCCCC(=O)Nc1ccccc1)NO [Vorinostat] (partner 1 µM) :: 0.92
Clc1ccc(Nc2nnc(Cc3ccncc3)c3ccccc23)cc1 [Vatalanib] + Nc1ncn([C@H]2C[C@H](O)[C@@H](CO)O2)c(=O)n1 [Decitabine] (partner 2 µM) :: 0.672
Clc1ccc(Nc2nnc(Cc3ccncc3)c3ccccc23)cc1 [Vatalanib] + COc1cccc2cc(-c3nc([C@H]4CC[C@H](C(=O)O)CC4)n4ncnc(N)c34)[nH]c12 [OSI-027] (partner 0.5 µM) :: 0.802
COc1cc(N2CCC(C(N)=O)CC2)ccc1Nc1nc(N)c(Cl)c(Nc2ccccc2S(=O)(=O)C(C)C)n1 [HG-5-88-01] + N=C(N)NC(=N)NCCc1ccccc1 [Phenformin] (partner 250 µM) :: 0.558
COc1cc(N2CCC(C(N)=O)CC2)ccc1Nc1nc(N)c(Cl)c(Nc2ccccc2S(=O)(=O)C(C)C)n1 [HG-5-88-01] + Cc1cc(Nc2cc(N3CCN(C)CC3)nc(Sc3ccc(NC(=O)C4CC4)cc3)n2)n[nH]1 [Tozasertib] (partner 0.1 µM) :: 0.498

relative viability reading for COc1cc(N2CCC(C(N)=O)CC2)ccc1Nc1nc(N)c(Cl)c(Nc2ccccc2S(=O)(=O)C(C)C)n1 [HG-5-88-01] + CS(=O)(=O)CCNCc1ccc(-c2ccc3ncnc(Nc4ccc(OCc5cccc(F)c5)c(Cl)c4)c3c2)o1 [Lapatinib] (partner 2 µM) : 0.463

relative viability reading for COc1cc(N2CCC(C(N)=O)CC2)ccc1Nc1nc(N)c(Cl)c(Nc2ccccc2S(=O)(=O)C(C)C)n1 [HG-5-88-01] + O=C(c1cc(Cc2n[nH]c(=O)c3ccccc23)ccc1F)N1CCN(C(=O)C2CC2)CC1 [Olaparib] (partner 8 µM) : 0.771

relative viability reading for Clc1ccc(Nc2nnc(Cc3ccncc3)c3ccccc23)cc1 [Vatalanib] + CC(C)C[C@H](NC(=O)[C@H](Cc1ccccc1)NC(=O)c1cnccn1)B(O)O [Bortezomib] (partner 0.002 µM) : 0.67

relative viability reading for Clc1ccc(Nc2nnc(Cc3ccncc3)c3ccccc23)cc1 [Vatalanib] + CC(=O)c1c(C)c2cnc(Nc3ccc(N4CCNCC4)cn3)nc2n(C2CCCC2)c1=O [Palbociclib] (partner 0.5 µM) : 0.616

relative viability reading for COc1cc(N2CCC(C(N)=O)CC2)ccc1Nc1nc(N)c(Cl)c(Nc2ccccc2S(=O)(=O)C(C)C)n1 [HG-5-88-01] + CCNC(=O)c1noc(-c2cc(C(C)C)c(O)cc2O)c1-c1ccc(CN2CCOCC2)cc1 [Luminespib] (partner 0.01 µM) : 0.925

relative viability reading for Clc1ccc(Nc2nnc(Cc3ccncc3)c3ccccc23)cc1 [Vatalanib] + Nc1nc2[nH]cc(CCc3ccc(C(=O)N[C@@H](CCC(=O)O)C(=O)O)cc3)c2c(=O)[nH]1 [Pemetrexed] (partner 0.2 µM) : 0.799
